B1: Caulobacter ParB omega fusion; a variant is named by its letters at X, in order, B8GW30 (parent)
chain: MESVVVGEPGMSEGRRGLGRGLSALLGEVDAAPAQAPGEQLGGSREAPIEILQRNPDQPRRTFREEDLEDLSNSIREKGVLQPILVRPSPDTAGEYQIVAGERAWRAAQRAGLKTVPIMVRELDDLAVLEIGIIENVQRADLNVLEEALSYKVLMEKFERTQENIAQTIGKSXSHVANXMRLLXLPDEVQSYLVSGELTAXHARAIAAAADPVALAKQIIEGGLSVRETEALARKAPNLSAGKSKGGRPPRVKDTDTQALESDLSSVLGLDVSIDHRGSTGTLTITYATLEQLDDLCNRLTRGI

# Variants of: B1
# protocolText: one-hybrid fitness for binding parS DNA (scaled: cognate 1, non-cognate 0); higher = stronger binding
# setupConditions: with parS DNA site
Whole data set: some 81,000 sequences, median “one-hybrid fitness for binding parS DNA” near -0.17, cut for the highest 2% near 0.51. For the sample, the highest values were picked, then their nearest neighbours and some sequences at random.
endpointName: one-hybrid fitness for binding parS DNA

# variantString, experimentalValue
rows = [
    ("TFVS", "≤ 0.2"),
    ("RRQR", "≤ 0.2"),
    ("RRWG", 0.906),
    ("GQDP", "≤ 0.2"),
    ("RKYY", 0.377),
    ("RTWQ", "≤ 0.2"),
    ("ANPQ", "≤ 0.2"),
    ("RTWG", 1.03),
    ("RTWF", 0.275),
    ("CGQS", "≤ 0.2"),
    ("NRQC", "≤ 0.2"),
]

Source: a collection of fitness landscapes (doi:10.1016/j.celrep.2020.107928)
